Items are presented alongside their recorded protein stability index.
B1: TMEM106C (parent)
chain: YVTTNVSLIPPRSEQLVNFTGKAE

variants of: B1; assay: protein stability index of a GFP-peptide fusion (GPS, HEK-293T) (PSI 1-6); higher = more stable; conditions: c terminus: a fixed tail appended;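 further: lentivirally expressed fusions sorted by FACS into six bins by GFP to DsRed ratio, PSI derived from sequencing read proportions per bin multiplied by bin number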

sequence_entry | protein stability index
DVTTNVSLIPPRSEQLVNFTGKAE [Y1D] | 3.69
YVTTNVSLIPPRSRQLVNFTGKAE [E14R] | 1.87
YVTTNYSLIPPRSEQLVNFTGKAE [V6Y] | 2.76
YVTTNVSLIPPRSEQLVNFTKKAE [G21K] | 1.59
YVTTNVSLIPPRNEQLVNFTGKAE [S13N] | 2.32
YVTTNVSLIPPRSEQLVSFTGKAE [N18S] | 2.36
YLTTNVSLIPPRSEQLVNFTGKAE [V2L] | 2.83
YVTTNVSLIPPRSEQLVNFRGKAE [T20R] | 2.19
YVTTNVSLIPPRSEALVNFTGKAE [Q15A] | 1.5
YHTTNVSLIPPRSEQLVNFTGKAE [V2H] | 2.62
YVTTNVSLIPPRSEQLVNFTAKAE [G21A] | 1.99
